Biological target: Gal(b1-4)GlcNAc(b1-3)Gal(b1-4)GlcNAc(b1-3)Gal(b1-4)GlcNAc(b1-2)Man(a1-3)[Gal(b1-4)GlcNAc(b1-3)Gal(b1-4)GlcNAc(b1-3)Gal(b1-4)GlcNAc(b1-2)Man(a1-6)]Man(b1-4)GlcNAc(b1-4)GlcNAc
Experiment: glycan array binding signal (z-score within array); higher = stronger binding
Conditions: glycan notation: IUPAC condensed, linker removed
Many of the other results were omitted from the sample, so the strongest signals are more common in it than they were.
Would you mind telling me the reported glycan array binding signal (z-score) of each entry?
Give bare numbers.

// solved cases for glycan array binding signal (z-score) follow
Binder	Observed Value
Als3-2 (Candida albicans) (protein) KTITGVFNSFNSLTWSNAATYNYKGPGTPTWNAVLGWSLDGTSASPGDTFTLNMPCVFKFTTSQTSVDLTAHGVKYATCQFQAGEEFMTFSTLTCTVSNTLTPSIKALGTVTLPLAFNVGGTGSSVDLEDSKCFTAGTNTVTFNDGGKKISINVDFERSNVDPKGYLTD	3.26
Als3-41 (Candida albicans) (protein) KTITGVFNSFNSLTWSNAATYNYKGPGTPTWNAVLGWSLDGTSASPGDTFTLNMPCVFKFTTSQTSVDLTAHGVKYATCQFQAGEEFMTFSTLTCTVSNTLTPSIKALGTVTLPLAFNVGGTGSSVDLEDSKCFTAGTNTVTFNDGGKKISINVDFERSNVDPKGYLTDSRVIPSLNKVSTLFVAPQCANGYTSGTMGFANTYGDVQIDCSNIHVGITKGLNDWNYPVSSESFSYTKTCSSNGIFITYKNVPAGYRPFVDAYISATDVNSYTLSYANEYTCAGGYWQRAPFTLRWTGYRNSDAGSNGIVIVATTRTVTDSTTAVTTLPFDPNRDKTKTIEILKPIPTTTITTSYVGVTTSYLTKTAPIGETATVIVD	2.56

Read the next record carefully.
Exam item: // lookup glycan array binding signal (z-score) for BIp1-His (Cryptococcus neoformans) (protein) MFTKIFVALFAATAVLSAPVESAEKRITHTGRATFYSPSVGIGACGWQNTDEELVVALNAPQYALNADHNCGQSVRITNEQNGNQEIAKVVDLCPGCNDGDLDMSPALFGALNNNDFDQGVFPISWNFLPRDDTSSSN
Marked response: 1.97
